Hey, just so you know, these numbers are from patent US6924297B2.

Molecular target: human EP4 receptor (Homo sapiens, UniProt P35408)
Construct: expressed in transfected cells; host or cells: Chinese Hamster Ovary (CHO) cells infected with recombinant Semliki Forest Virus (SFV-1) particles; membranes prepared from these cells
Sequence (P35408 whole entry): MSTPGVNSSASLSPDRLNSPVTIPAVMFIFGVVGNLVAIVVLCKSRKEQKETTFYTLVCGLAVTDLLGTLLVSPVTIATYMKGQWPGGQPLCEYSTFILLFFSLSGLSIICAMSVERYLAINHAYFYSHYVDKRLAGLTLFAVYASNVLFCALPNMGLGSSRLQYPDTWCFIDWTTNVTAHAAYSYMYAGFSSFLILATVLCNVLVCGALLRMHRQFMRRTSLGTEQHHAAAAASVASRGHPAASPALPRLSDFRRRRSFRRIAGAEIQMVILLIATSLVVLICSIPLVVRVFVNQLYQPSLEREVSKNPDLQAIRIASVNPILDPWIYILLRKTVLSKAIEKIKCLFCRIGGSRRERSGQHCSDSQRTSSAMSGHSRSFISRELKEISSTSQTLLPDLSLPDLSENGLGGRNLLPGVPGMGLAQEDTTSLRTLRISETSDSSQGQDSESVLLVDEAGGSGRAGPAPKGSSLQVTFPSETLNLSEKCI
Experiment: Human EP4 Scintillation Proximity Assay (radioligand binding)
Conditions: membranes of CHO cells expressing human EP4 receptor; [3H]-prostaglandin E2 radioligand; pKi from IC50 by Cheng-Prusoff; read-out: pKI at EP4 receptors (converted)
# Ki values compiled below

Sample answers from the record:
{"molecule": "CCOc1c2c(c(OCC)c3ccccc13)C(=O)N(c1ccc(CS(=O)(=O)NC(=O)C(C)c3ccc(CC(C)C)cc3)cc1)C2 (stereo not drawn) [Example 40]", "Ki": "≤ 100 nM"}
{"molecule": "CCOc1c2c(c(OCC)c3ccccc13)C(=O)N(c1ccc(CS(=O)(=O)NC(=O)C(C)c3ccccc3)cc1)C2=O (stereo not drawn) [Example 68]", "Ki": "≤ 100 nM"}
{"molecule": "CCOc1c2c(c(OCC)c3ccccc13)C(=O)N(c1ccc(CS(=O)(=O)NC(=O)Cc3ccccc3CC(=O)OC)cc1)C2 [Example 47]", "Ki": "≤ 100 nM"}

INPUT: Output measured Ki for this item: CCOc1c2c(c(OCC)c3ccccc13)C(=O)N(c1ccc(CS(=O)(=O)NC(=O)Cn3ccc4ccccc43)cc1)C2 [Example 87]
OUTPUT: ≤ 100 nM

INPUT: Output measured Ki for this item: CCOc1c2c(c(OCC)c3ccccc13)C(=O)N(c1ccc(CS(=O)(=O)NC(=O)Cc3ccc4c(c3)OCO4)cc1)C2=O [Example 93]
OUTPUT: ≤ 100 nM

INPUT: Output measured Ki for this item: CCOc1c2c(c(OCC)c3ccccc13)C(=O)N(c1ccc(CS(=O)(=O)NC(=O)Cc3cccc4ccccc34)cc1)C2=O [Example 76]
OUTPUT: ≤ 100 nM
